# pIC50 per record follows
System: A549
Experiment: MTT cell proliferation test, cytotoxicity on A549 lung cancer cells
Type: cell-based
Details: A549, 72 hrs incubation, read-out: IC50 μmole/L, after 72 hrs incubation time
// field semantics: pIC50 = negative decimal log of concentration (mol/L)

The following molecules have reported results that may help.
Molecule | Value Type | Value
CCc1c2c(nc3ccc(O)cc13)-c1cc3c(c(=O)n1[C@@H]2CN1CCCC1)COC(=O)C3(O)CC (stereo partly shown) | pIC50 | 6.57
CCc1c2c(nc3ccc(O)cc13)-c1cc3c(c(=O)n1[C@H]2CO)COC(=O)C3(O)CC (stereo partly shown) | pIC50 | 5.37
CCc1c2c(nc3ccc(O)c(CN4CCC4)c13)-c1cc3c(c(=O)n1[C@H]2CO)COC(=O)C3(O)CC (stereo partly shown) | pIC50 | 5.28

Incoming: Tell me the measured pIC50 of CCc1c2c(nc3ccc(O)cc13)-c1cc3c(c(=O)n1[C@H]2CN1CCCC1)COC(=O)[C@]3(O)CC , please.
Outgoing: 6.69
